Where do the numbers come from? From patent US20220062341A1.

- tgt: CD3 subunits (CD3E, CD3G, CD3D, CD3Z) (human, UniProt P07766 23-207; P09693 23-182; P04234 22-171; P20963 22-164)
- Sequence (P07766 23-207, chain 1 of 4): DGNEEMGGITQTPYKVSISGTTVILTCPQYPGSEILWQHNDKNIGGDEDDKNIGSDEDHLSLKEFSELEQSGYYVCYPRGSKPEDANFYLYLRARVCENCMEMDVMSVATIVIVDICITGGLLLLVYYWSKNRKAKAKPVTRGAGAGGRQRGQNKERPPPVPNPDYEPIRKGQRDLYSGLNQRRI
- Sequence (P09693 23-182, chain 2 of 4): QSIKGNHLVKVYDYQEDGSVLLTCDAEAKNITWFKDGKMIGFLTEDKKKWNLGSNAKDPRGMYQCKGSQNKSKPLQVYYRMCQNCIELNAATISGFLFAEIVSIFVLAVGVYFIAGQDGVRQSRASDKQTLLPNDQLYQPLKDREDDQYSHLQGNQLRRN
- Sequence (P04234 22-171, chain 3 of 4): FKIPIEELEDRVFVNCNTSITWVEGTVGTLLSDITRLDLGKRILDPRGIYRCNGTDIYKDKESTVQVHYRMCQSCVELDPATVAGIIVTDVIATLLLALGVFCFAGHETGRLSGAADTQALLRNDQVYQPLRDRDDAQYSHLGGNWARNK
- Sequence (P20963 22-164, chain 4 of 4): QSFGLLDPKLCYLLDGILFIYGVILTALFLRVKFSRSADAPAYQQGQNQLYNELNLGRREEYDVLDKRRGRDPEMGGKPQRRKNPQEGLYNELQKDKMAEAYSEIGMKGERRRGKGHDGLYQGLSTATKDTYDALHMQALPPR
- measurement description: cell-based or functional assay
measure: CD3-recruiting activity (CD3-positive proportion, N=3), CD3-stably expressing 293T cells

>>> test_value("modified TCR consisting of β11 and α3 (TCR) TCR alpha: NVSQSKDSDVYITDKTVLDMRSMDFKSNSAVAWSNKSDFACANAFNNSIIPEDTFFPSPESSCDVKLVEKSFETDTNLNFQNLSVIGFRILLLKVAGFNLLMTLRLWSS TCR beta: EWTQDRAKPVTQIVSAEAWGRADCGFTSESYQQGVLSATILYEILLGKATLYAVLVSALVLMAMVKRKDSRG")
"≥ 20%"

Sample modified TCR consisting of β2 and α1 (TCR) TCR alpha: YQLRDSKSSDKSVCLFTDFDSQTNVSQSKDSDVYITDKTVLDMRSMDFKSNSAVAWSNKSDFACANAFNNSIIPEDTFFPSPESSCDVKLVEKSFETDTNLNFQNLSVIGFRILLLKVAGFNLLMTLRLWSS TCR beta: ATLVCLATGFYPDHVELSWWVNGKEVHSGVSTDPQPLKEQPALNDSRYCLSSRLRVSATFWQNPRNHFRCQVQFYGLSENDEWTQDRAKPVTQIVSAEAWGRADCGFTSESYQQGVLSATILYEILLGKATLYAVLVSALVLMAMVKRKDSRG — what was its CD3-recruiting activity (CD3-positive proportion, N=3), CD3-stably expressing 293T cells?
≥ 20%

Further, for modified TCR consisting of β2 and α2 (TCR) TCR alpha: SVCLFTDFDSQTNVSQSKDSDVYITDKTVLDMRSMDFKSNSAVAWSNKSDFACANAFNNSIIPEDTFFPSPESSCDVKLVEKSFETDTNLNFQNLSVIGFRILLLKVAGFNLLMTLRLWSS TCR beta: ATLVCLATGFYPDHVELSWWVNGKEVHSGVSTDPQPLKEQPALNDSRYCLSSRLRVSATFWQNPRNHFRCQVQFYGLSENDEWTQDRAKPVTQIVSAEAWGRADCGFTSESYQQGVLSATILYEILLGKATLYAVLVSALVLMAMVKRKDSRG ?
≥ 20%
